Target: UniProtKB O60674
Sequence (O60674 whole entry): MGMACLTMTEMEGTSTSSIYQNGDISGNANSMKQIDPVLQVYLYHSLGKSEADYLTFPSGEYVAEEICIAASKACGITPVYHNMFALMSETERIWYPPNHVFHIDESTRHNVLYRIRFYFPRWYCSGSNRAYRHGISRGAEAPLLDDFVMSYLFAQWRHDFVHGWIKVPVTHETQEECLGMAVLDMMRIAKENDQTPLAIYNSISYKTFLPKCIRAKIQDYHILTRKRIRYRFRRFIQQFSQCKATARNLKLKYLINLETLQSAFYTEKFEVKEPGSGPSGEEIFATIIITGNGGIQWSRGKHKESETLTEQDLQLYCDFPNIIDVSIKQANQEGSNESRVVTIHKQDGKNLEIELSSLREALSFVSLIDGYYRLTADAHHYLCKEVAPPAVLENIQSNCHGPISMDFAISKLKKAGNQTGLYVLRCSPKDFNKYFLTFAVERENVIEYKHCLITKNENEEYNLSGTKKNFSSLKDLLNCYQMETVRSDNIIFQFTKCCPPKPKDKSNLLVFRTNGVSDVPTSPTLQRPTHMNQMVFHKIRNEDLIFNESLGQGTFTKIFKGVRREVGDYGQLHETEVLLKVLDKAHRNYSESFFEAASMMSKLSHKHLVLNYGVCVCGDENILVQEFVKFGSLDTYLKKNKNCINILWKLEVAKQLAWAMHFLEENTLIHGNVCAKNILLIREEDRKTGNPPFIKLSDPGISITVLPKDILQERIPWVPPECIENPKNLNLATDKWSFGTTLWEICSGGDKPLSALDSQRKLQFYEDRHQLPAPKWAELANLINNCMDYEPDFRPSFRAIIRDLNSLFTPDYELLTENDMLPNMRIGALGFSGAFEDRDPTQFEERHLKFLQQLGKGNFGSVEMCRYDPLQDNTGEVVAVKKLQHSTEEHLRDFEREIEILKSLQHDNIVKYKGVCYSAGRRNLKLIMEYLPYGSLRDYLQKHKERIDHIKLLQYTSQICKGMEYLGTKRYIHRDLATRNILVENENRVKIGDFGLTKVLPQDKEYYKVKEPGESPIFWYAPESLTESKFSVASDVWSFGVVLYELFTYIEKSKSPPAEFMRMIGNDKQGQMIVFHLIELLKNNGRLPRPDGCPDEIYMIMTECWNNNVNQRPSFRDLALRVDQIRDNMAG
endpoint: IC50 (µM)
Write it as a number; the unit µM goes unstated.

[in] Identify measured IC50 associated with NS(=O)(=O)OCCn1cnc2c(Nc3ccc(F)cc3)nc(NCc3ccc(C4CCCCC4)cc3)nc21
[out] 16.6
